Target: 5-HT2A (Homo sapiens, UniProt P28223)
Sequence (P28223 whole entry): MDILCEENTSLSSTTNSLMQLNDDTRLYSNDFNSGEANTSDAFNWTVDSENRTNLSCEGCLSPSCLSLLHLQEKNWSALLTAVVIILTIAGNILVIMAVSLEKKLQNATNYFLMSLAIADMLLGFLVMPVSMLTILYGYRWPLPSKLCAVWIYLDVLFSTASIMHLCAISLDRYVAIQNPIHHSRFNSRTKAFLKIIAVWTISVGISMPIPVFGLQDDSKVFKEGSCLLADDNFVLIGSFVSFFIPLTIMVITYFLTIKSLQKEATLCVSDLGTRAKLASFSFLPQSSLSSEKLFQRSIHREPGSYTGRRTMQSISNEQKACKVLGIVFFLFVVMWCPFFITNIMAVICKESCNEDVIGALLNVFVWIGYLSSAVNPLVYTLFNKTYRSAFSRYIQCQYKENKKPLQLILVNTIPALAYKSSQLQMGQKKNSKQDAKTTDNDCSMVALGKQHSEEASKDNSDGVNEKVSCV
Assay: FLIPR Ca2+ flux functional assay, 5-HT2A (HEK293)
Settings: agonist activity, HEK293 cells expressing 5-HT2A
property.name: EC50

# compound, property.name, measured.result
rows = [
    ("COc1c(F)ccc2[nH]nc(CCN(C)C3CC3)c12", "EC50", "62.7 nM"),
    ("COc1cc(F)c2[nH]nc(CCN3CCC3)c2c1", "EC50", "318 nM"),
    ("COc1cc(F)cc2[nH]nc(CCN3CCC4CC43)c12 (stereo not shown)", "EC50", "29.7 nM"),
    ("COc1cc(F)cc2[nH]nc(CCN3CCC3)c12", "EC50", "1080 nM"),
    ("CCN(C)CCc1n[nH]c2ccc(OC)c(F)c12", "EC50", "831 nM"),
    ("COc1ccc2[nH]nc(CCN(C)C(C)C)c2c1F", "EC50", "1380 nM"),
    ("COc1cc(F)c2[nH]nc(CCN(C)C)c2c1", "EC50", "242 nM"),
    ("COc1ccccc1CNCCc1n[nH]c2cccc(F)c12", "EC50", "55.2 nM"),
    ("Fc1ccc2[nH]nc(CCN3CCC3)c2c1F", "EC50", "1350 nM"),
    ("CCN(C)CCc1n[nH]c2c(F)cccc12", "EC50", "469 nM"),
    ("CN(CCc1n[nH]c2ccc(F)cc12)C1CC1", "EC50", "419 nM"),
    ("COc1ccc(F)c2[nH]nc(CCN3CCCC3)c12", "EC50", "533 nM"),
    ("CCN(C)CCc1n[nH]c2ccc(F)c(OC)c12", "EC50", "31.5 nM"),
    ("COc1cc(F)cc2[nH]nc(CCN(C)C)c12", "EC50", "75 nM"),
    ("COc1ccc(F)c2[nH]nc(CCN3CCC4CC43)c12 (stereo not shown)", "EC50", "216 nM"),
    ("COc1ccccc1CNCCc1n[nH]c2ccc(F)c(F)c12", "EC50", "59.5 nM"),
    ("CC(C)N(C)CCc1n[nH]c2c(F)cc(F)cc12", "EC50", "810 nM"),
    ("CN(C)CCc1n[nH]c2cccc(F)c12", "EC50", "2050 nM"),
    ("CN(C)CCc1n[nH]c2cccc(O)c12", "EC50", "43.1 nM"),
    ("COc1cc(F)cc2[nH]nc(CCN(C)C(C)C)c12", "EC50", "322 nM"),
    ("COc1cc2c(CCN3CC4CC4C3)n[nH]c2cc1F (stereo not shown)", "EC50", "1580 nM"),
    ("COc1cc2c(CCN3CCC4CC43)nn(C)c2cc1F (stereo not shown)", "EC50", "63.4 nM"),
]

* * *

Target: 5-HT2C (Homo sapiens, UniProt P28335)
Sequence (P28335 33-458): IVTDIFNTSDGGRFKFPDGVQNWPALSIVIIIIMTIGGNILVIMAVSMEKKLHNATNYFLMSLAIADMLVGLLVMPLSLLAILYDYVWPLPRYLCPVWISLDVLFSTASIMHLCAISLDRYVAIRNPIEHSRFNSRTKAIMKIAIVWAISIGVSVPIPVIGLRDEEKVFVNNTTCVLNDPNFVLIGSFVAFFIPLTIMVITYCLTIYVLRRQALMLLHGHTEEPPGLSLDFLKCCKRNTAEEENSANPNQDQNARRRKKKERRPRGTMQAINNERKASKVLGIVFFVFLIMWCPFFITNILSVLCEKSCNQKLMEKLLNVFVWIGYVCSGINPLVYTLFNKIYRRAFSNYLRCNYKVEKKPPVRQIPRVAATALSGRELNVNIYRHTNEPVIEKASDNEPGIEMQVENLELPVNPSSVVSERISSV
Test: FLIPR Ca2+ flux functional assay, 5-HT2C (HEK293)
Details: agonist activity, HEK293 cells expressing 5-HT2C
property.name: EC50

# compound, property.name, measured.result
data = [
    ("CCN(C)CCc1n[nH]c2ccc(F)c(F)c12 [Example A70]", "EC50", "226 nM"),
    ("CCN(C)CCc1n[nH]c2c(F)ccc(OC)c12 [Example A45]", "EC50", "614 nM"),
    ("COc1ccc(F)c2[nH]nc(CCN3CCCC3)c12 [Example A48]", "EC50", "556 nM"),
    ("COc1cc(F)cc2[nH]nc(CCN3CCC3)c12 [Example A41]", "EC50", "1420 nM"),
    ("CC(C)N(C)CCc1n[nH]c2ccc(F)cc12 [Example A19]", "EC50", "1520 nM"),
    ("CN(C)CCc1n[nH]c2c(F)cccc12 [Example A67]", "EC50", "1670 nM"),
    ("CCN(C)CCc1n[nH]c2cc(F)cc(F)c12 [Example A29]", "EC50", "1480 nM"),
    ("COc1ccccc1CNCCc1n[nH]c2ccc(F)c(F)c12 [Example A74]", "EC50", "133 nM"),
    ("COc1ccc(F)c2[nH]nc(CCN3CCC3)c12 [Example A47]", "EC50", "64 nM"),
    ("COc1cc(F)cc2[nH]nc(CCN(C)C(C)C)c12 [Example A40]", "EC50", "> 10000 nM"),
    ("COc1cc(F)c2[nH]nc(CCN3CCCC3)c2c1 [Example A54]", "EC50", "3260 nM"),
    ("CN(C)CCc1n[nH]c2ccc(F)c(F)c12 [Example A69]", "EC50", "132 nM"),
    ("CCN(C)CCc1n[nH]c2c(F)cccc12 [Example A68]", "EC50", "1920 nM"),
    ("COc1cc2c(CCN(C)C)n[nH]c2cc1F [Example A5]", "EC50", "281 nM"),
    ("CCN(C)CCc1n[nH]c2c(F)cc(OC)cc12 [Example A51]", "EC50", "1370 nM"),
    ("COc1ccc2[nH]nc(CCNCc3ccccc3)c2c1 [Example A62]", "EC50", "179 nM"),
    ("COc1cc2c(CCN3CCC3)n[nH]c2cc1F [Example A56]", "EC50", "3070 nM"),
    ("COc1ccc2[nH]nc(CCNCc3ccccc3OC)c2c1 [Example A63]", "EC50", "32.5 nM"),
    ("COc1ccc2[nH]nc(CCNCc3ccccc3F)c2c1 [Example A64]", "EC50", "602 nM"),
    ("CCN(C)CCc1n[nH]c2cc(F)c(OC)cc12 [Example A6]", "EC50", "786 nM"),
    ("COc1ccc(F)c2[nH]nc(CCN(C)C)c12 [Example A44]", "EC50", "222 nM"),
    ("Fc1ccc2[nH]nc(CCN3CCC3)c2c1F [Example A72]", "EC50", "973 nM"),
    ("COc1cc2c(CCN3CCC4CC43)n[nH]c2cc1F (stereo not shown) [Example A60]", "EC50", "255 nM"),
    ("CCN(C)CCc1n[nH]c2ccc(F)cc12 [Example A18]", "EC50", "128 nM"),
    ("COc1cc2c(CCN3CC(C)C3)n[nH]c2cc1F [Example A57]", "EC50", "> 10000 nM"),
    ("COc1c(F)ccc2[nH]nc(CCN(C)C(C)C)c12 [Example A3]", "EC50", "170 nM"),
    ("COc1cc(F)c2[nH]nc(CCN(C)C(C)C)c2c1 [Example A52]", "EC50", "> 10000 nM"),
    ("COc1cc(F)c2[nH]nc(CCN(C)C)c2c1 [Example A50]", "EC50", "> 10000 nM"),
    ("COc1c(F)ccc2[nH]nc(CCN(C)C)c12 [Example A1]", "EC50", "8.21 nM"),
    ("COc1cc2c(CCN(C)C3CC3)n[nH]c2cc1F [Example A8]", "EC50", "507 nM"),
    ("COc1ccc2[nH]nc(CCNCc3cccc(F)c3)c2c1 [Example A65]", "EC50", "891 nM"),
    ("COc1ccc2[nH]nc(CCN(C)C(C)C)c2c1F [Example A11]", "EC50", "> 10000 nM"),
    ("COc1cc(F)cc2[nH]nc(CCN3CCC4CC43)c12 (stereo not shown) [Example A43]", "EC50", "39.9 nM"),
    ("CCN(C)CCc1n[nH]c2ccc(OC)c(F)c12 [Example A10]", "EC50", "2860 nM"),
    ("COc1cc2c(CCN3CCCC3)n[nH]c2cc1F [Example A59]", "EC50", "3870 nM"),
    ("COc1cc(F)cc2[nH]nc(CCN(C)C)c12 [Example A38]", "EC50", "203 nM"),
    ("CC(C)N(C)CCc1n[nH]c2c(F)cc(F)cc12 [Example A37]", "EC50", "> 10000 nM"),
    ("COc1cc(F)cc2[nH]nc(CCN3CCCC3)c12 [Example A42]", "EC50", "944 nM"),
    ("COc1c(F)ccc2[nH]nc(CCN(C)C3CC3)c12 [Example A4]", "EC50", "17.1 nM"),
    ("CN(C)CCc1n[nH]c2cccc(F)c12 [Example A13]", "EC50", "944 nM"),
    ("CCN(C)CCc1n[nH]c2cc(F)cc(OC)c12 [Example A39]", "EC50", "375 nM"),
    ("COc1ccc2[nH]nc(CCN(C)C)c2c1F [Example A9]", "EC50", "1100 nM"),
    ("COc1cc2c(CCN3CC4CC4C3)n[nH]c2cc1F (stereo not shown) [Example A61]", "EC50", "> 10000 nM"),
]
